The measurements presented in this section are drawn from PubChem BioAssay (NCI).

Tested on: COLO 205 colon
Assay: NCI-60 one-dose screen, 48 h
Settings: 10 µM
Compounds without any hit were thinned out: in the full panel of roughly 83,000, 20% have a hit. Active and inactive are the calls of the source. Rule for the calls: active = growth percent below 10; inactive = the rest.
Select the matching outcome among T (active), F (inactive)

Examples from the recorded data:
{"columns": ["compound", "label"],
 "data": [
  ["CCOC(=O)c1cc(C(=O)c2ccc(Cl)cc2)n2ccc(-c3cc[n+](CC(=O)c4ccc(OC)cc4)cc3)cc12", "F"],
  ["COc1ccc(Cc2cnc(N)nc2N)cc1OC", "F"],
  ["Cc1cc(NC(=O)c2ccc(C)c(Nc3nccc(-c4cccnc4)n3)c2)cc(-n2cnc(C)c2)c1", "T"],
  ["Cc1ccc(-n2nnnc2N)c(C)c1", "F"],
  ["COc1cc(C(=O)N2CCN(c3cc4c(cc3F)c(=O)c(C(=O)NO)cn4C3CC3)CC2)cc(OC)c1OC", "F"],
  ["O=[N+]([O-])c1ccc(/C(=C/c2ccccc2)[n+]2ccccc2)cc1", "F"],
  ["CCCCCCCCCCOC(c1ccccc1)c1ccccc1", "F"],
  ["Cc1ccc(-c2c3c(N)nc(-c4cccnc4)nc3nc3c2c(C)nn3-c2ccccc2)cc1", "F"],
  ["COc1cc2cc(Oc3ccc(NC(=O)Nc4cccc(C(F)(F)F)c4)cc3)c(C)nc2cc1OC", "T"],
  ["c1ccc(/C(=N\\Nc2ccc3ccccc3n2)c2ccccn2)cc1", "F"]
]}

Test call, this compound: CC(C1=C(CN(C(=O)Cc2cn(-c3ccccc3)nc2-c2ccc(Cl)cc2)C(C)C)Cc2ccccc21)c1ccccn1 (stereo not drawn) F

Test call, this compound: "CC(C)C[C@H](NC(=O)Cn1cccc(CNC(=O)c2ccccc2)c1=O)B(O)O" F

Test call, this compound: "O=c1cn[nH]c2ccc(Br)cc12" F

###

Examples of compounds with documented growth follow.
Tested on: COLO 205 colon
Experiment: NCI-60 one-dose screen, 48 h (100 = growth as untreated, 0 = no growth, -100 = all killed)
Details: 10 µM
Compounds without any hit were thinned out: in the full panel of roughly 83,000, 20% have a hit.
I only need the number, in %, no unit after it.

{"columns": ["compound", "measurement.units", "growth"],
 "data": [
  ["Cc1cc(C)nc(NS(=O)(=O)c2ccc(Nc3nc4nc(NCc5ccccc5)nc(-c5ccc(O)cc5)c4c(=O)[nH]3)cc2)n1", "%", 35.3],
  ["C=CCn1c(SCC(=O)Nc2ccc(C(=O)/C=C/c3cc(OC)c(OC)c(OC)c3)cc2)nnc1-c1cc(-c2ccc(Cl)cc2)nc2ccccc12", "%", 115],
  ["Cc1c(Cl)cccc1NC(=O)CCCl", "%", 107]
]}

The reported value for "COc1cc(-c2nn(-c3cccc(NC(=O)CCNc4ccc(N5CCOCC5)cc4)c3)cc2-c2ccncc2)ccc1Cl" in terms of growth is 1.38

The reported value for "COc1cc2c3c(n(C4CCN(C)CC4)c(=O)c2cc1OC)-c1cc2c(cc1C3=O)OCO2" in terms of growth is 59.5

The reported value for "CC1=NN(C(=O)c2nn(-c3ccc(Cl)cc3)cc2O)C(=O)C1" in terms of growth is 53

The reported value for "Clc1ccc2c(c1)C(N1CCNCC1)=Nc1ccccc1O2" in terms of growth is -65.9

The reported value for "COc1ccc(-c2nn(-c3cccc(Cl)c3)cc2-c2nc(N)[nH]c(=O)c2C#N)cc1" in terms of growth is 107
